Tested on: H929
assay explanation: Cell proliferation assay (CellTiter-Glo), H929
Format: cell-based
measurement conditions: H929, Human Multiple Myeloma, peptides 100 μM-0.2 μM, 72 hrs
Where no end group is shown, it is not given here.
property name: IC50 (µM)

residue sequence: GRKKRRQRRRPPQGSGSGSDYKDHDGDYKDHDIDYKDDDDK [Tat-Flag, reference compound]
property name: IC50
value prefix: >
numeric readout: 100
//
residue sequence: GRKKRRQRRRPPQGSGSGSMEAPNQALLRILKETEFKKIKVLGSGAFGTVYKGLWIPEGE [Tat-EGFR-697]
property name: IC50
value prefix: =
numeric readout: 5.1
